target: F508delCFTR (Homo sapiens, UniProt P13569, DEL508-508); construct: expressed in transfected cells; host or cells: CFBE41o- (human lung derived epithelial cell line), doxycycline-inducible expression; test: Cell Surface Expression-Horse Radish Peroxidase (CSE-HRP) assay; assay type: cell-based; conditions: CFBE41o-F508delCFTR-HRP cells; without co-corrector; normalized to on-plate positive control; highest concentration 20 μM;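 further: % of on-plate positive control (2 µM of the co-corrector compound) after DMSO subtraction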
Sequence (P13569 with tags, fused parts or gaps DEL508-508): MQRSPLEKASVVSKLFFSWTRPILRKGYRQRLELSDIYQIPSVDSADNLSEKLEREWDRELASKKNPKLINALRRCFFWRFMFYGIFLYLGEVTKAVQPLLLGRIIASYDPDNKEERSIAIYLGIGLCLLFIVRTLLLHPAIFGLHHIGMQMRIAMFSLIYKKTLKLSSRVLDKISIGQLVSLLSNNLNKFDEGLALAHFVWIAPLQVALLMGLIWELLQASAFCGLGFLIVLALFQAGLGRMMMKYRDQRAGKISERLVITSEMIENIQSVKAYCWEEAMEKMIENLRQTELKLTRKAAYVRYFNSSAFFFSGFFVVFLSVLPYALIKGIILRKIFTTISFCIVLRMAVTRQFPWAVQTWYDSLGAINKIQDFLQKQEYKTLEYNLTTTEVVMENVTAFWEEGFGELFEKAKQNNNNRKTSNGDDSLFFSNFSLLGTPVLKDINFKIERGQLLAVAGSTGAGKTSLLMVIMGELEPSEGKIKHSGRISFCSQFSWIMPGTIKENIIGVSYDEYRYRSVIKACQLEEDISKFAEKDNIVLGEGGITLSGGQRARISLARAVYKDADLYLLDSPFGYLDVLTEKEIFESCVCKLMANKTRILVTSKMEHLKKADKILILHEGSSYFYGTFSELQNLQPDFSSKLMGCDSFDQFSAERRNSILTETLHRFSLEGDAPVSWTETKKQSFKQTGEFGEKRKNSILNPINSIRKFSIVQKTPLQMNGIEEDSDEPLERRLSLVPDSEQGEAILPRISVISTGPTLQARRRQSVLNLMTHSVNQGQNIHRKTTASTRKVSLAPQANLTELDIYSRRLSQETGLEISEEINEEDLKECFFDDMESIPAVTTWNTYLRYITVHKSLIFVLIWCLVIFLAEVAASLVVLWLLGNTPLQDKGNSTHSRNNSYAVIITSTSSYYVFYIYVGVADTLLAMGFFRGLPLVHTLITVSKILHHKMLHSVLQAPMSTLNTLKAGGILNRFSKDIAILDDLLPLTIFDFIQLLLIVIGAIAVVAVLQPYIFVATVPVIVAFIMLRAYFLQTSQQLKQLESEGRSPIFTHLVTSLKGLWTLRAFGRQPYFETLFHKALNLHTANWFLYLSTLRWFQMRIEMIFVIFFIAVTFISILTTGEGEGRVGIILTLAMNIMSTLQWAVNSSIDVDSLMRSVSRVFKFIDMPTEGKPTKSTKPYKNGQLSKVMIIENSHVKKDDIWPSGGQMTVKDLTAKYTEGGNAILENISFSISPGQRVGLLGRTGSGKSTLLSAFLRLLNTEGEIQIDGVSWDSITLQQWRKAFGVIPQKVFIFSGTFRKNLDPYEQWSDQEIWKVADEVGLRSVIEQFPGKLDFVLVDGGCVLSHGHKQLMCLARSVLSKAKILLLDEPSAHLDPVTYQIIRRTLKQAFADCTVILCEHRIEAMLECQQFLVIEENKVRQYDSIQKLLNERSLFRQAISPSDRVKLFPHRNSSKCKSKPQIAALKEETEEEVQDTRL
endpoint.label: Maximum % activity (without co-corrector)

COc1ncc(C(F)(F)F)cc1CO[C@H]1[C@H](C(C)(C)C)[C@@H](C(=O)O)N(C(=O)C2CCC2)[C@H]1c1cccnc1OC(C)C [Example 160] :: + (<100)
COc1nc2ccccc2cc1CO[C@H]1[C@H](C(C)(C)C)[C@@H](C(=O)O)N(C(=O)[C@@H]2CCCO2)[C@H]1c1ccccc1Br [Example 151] :: + (<100)
